assayed.system: human NPFFR1 (hNPFFR1) receptor (Homo sapiens)
protocol.description: Human NPFFR1 evaluation using BRET biosensors (antagonist IC50)
test.settings: hNPFFR1 transiently over-expressed in HEK-293 T cells; BRET signal; stimulation by EC80 RFRP-3
recorded.endpoint: IC50

Below: 2 compounds and their reported IC50.
CCCc1nc(N)ccc1-c1cccc2cccnc12.Cl | < 100 nM
CCc1nc(N)ccc1-c1ccccc1-c1ccc(C(F)(F)F)nc1.Cl | 100 to 1000 nM

Q) Check human NPFFR1 (hNPFFR1) receptor (Homo sapiens) data and give IC50 for CCc1nc(N)ccc1-c1c(OC)ccc2cccnc12.Cl .
A) < 100 nM

Q) Check human NPFFR1 (hNPFFR1) receptor (Homo sapiens) data and give IC50 for CCc1nc(N)ccc1-c1cccc2nccnc12.Cl .
A) 100 to 1000 nM

Q) Check human NPFFR1 (hNPFFR1) receptor (Homo sapiens) data and give IC50 for Cl.Nc1ccc(-c2c(F)ccc3cccnc23)c(CCC(F)(F)F)n1 .
A) 100 to 1000 nM

Q) Check human NPFFR1 (hNPFFR1) receptor (Homo sapiens) data and give IC50 for CCc1nc(N)ccc1-c1c(C(F)(F)F)ccc2cccnc12.Cl .
A) < 100 nM

Q) Check human NPFFR1 (hNPFFR1) receptor (Homo sapiens) data and give IC50 for CCc1nc(N)ccc1-c1cccc2ccc(C(=O)N(C)C)nc12 .
A) 100 to 1000 nM

Q) Check human NPFFR1 (hNPFFR1) receptor (Homo sapiens) data and give IC50 for Nc1ccc(-c2c(Cl)ccc3ccc(O)nc23)c(N)n1 .
A) < 100 nM

Q) Check human NPFFR1 (hNPFFR1) receptor (Homo sapiens) data and give IC50 for CCc1nc(N)ccc1-c1csc2ccccc12 .
A) 100 to 1000 nM

###

assayed.system: human NPFFR1 (hNPFFR1) receptor (Homo sapiens, UniProt Q9GZQ6)
Sequence (Q9GZQ6 whole entry): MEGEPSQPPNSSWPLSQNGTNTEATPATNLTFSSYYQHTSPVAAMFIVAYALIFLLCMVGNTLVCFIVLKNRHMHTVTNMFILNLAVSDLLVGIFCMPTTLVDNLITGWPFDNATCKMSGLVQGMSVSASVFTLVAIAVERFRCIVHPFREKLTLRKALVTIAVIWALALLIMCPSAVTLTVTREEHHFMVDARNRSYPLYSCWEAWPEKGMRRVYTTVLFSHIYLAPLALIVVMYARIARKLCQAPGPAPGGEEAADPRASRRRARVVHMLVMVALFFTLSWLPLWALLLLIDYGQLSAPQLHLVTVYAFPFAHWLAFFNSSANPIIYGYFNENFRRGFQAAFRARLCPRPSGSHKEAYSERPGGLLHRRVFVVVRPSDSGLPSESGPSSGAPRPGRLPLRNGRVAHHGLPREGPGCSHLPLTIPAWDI
protocol.description: Human NPFFR1 evaluation using BRET biosensors (antagonist IC50)
test.settings: hNPFFR1 transiently over-expressed in HEK-293 T cells; BRET signal; stimulation by EC80 RFRP-3
Listing of entries alongside the reported IC50.

Q) Check human NPFFR1 (hNPFFR1) receptor (Homo sapiens, UniProt Q9GZQ6) data and give IC50 for CCc1nc(N)ccc1-c1c(C)ccc2cccnc12.Cl .
A) < 100 nM

Q) Check human NPFFR1 (hNPFFR1) receptor (Homo sapiens, UniProt Q9GZQ6) data and give IC50 for CCc1nc(N)ccc1-c1csc2cc(OC)ccc12 .
A) > 1000 nM

Q) Check human NPFFR1 (hNPFFR1) receptor (Homo sapiens, UniProt Q9GZQ6) data and give IC50 for Cl.Nc1ccc(-c2cccc3ccoc23)c(N)n1 .
A) 100 to 1000 nM

Q) Check human NPFFR1 (hNPFFR1) receptor (Homo sapiens, UniProt Q9GZQ6) data and give IC50 for CCc1nc(N)ccc1-c1cccc2ccc(N3CCCC3)nc12.Cl .
A) 100 to 1000 nM

Q) Check human NPFFR1 (hNPFFR1) receptor (Homo sapiens, UniProt Q9GZQ6) data and give IC50 for Cn1cc(-c2ccc(N)nc2N)c2ccccc21 .
A) > 1000 nM

Q) Check human NPFFR1 (hNPFFR1) receptor (Homo sapiens, UniProt Q9GZQ6) data and give IC50 for CCc1nc(N)ccc1-c1ccc(C)c2cccnc12.Cl .
A) 100 to 1000 nM

Q) Check human NPFFR1 (hNPFFR1) receptor (Homo sapiens, UniProt Q9GZQ6) data and give IC50 for CCc1nc(N)ccc1-c1c(F)ccc2c1OCCCC2.Cl .
A) < 100 nM

Q) Check human NPFFR1 (hNPFFR1) receptor (Homo sapiens, UniProt Q9GZQ6) data and give IC50 for CCc1nc(N)ccc1-c1cc(F)ccc1-c1ccc(N2CCOCC2)nc1.Cl .
A) 100 to 1000 nM

Q) Check human NPFFR1 (hNPFFR1) receptor (Homo sapiens, UniProt Q9GZQ6) data and give IC50 for CCc1nc(N)ccc1-c1c(C#N)ccc2cccnc12 .
A) 100 to 1000 nM

Q) Check human NPFFR1 (hNPFFR1) receptor (Homo sapiens, UniProt Q9GZQ6) data and give IC50 for CCc1nc(N)ccc1-c1cccc2c1N(C)C(=O)CC2 .
A) > 1000 nM

Q) Check human NPFFR1 (hNPFFR1) receptor (Homo sapiens, UniProt Q9GZQ6) data and give IC50 for CCc1nc(N)ccc1-c1c(F)c(F)cc2ccc(O)nc12.Cl .
A) 100 to 1000 nM

Q) Check human NPFFR1 (hNPFFR1) receptor (Homo sapiens, UniProt Q9GZQ6) data and give IC50 for CCc1nc(N)ccc1-c1c(F)ccc2cc(F)cnc12.Cl .
A) < 100 nM

Q) Check human NPFFR1 (hNPFFR1) receptor (Homo sapiens, UniProt Q9GZQ6) data and give IC50 for CCc1nc(N)ccc1-c1cccc2cc(C)cnc12.Cl .
A) < 100 nM

Q) Check human NPFFR1 (hNPFFR1) receptor (Homo sapiens, UniProt Q9GZQ6) data and give IC50 for Cl.Cn1ncc2cccc(-c3ccc(N)nc3N)c21 .
A) 100 to 1000 nM

Q) Check human NPFFR1 (hNPFFR1) receptor (Homo sapiens, UniProt Q9GZQ6) data and give IC50 for CCc1nc(N)ccc1-c1cccc2ccc(N3CCOCC3)nc12.Cl .
A) < 100 nM

Q) Check human NPFFR1 (hNPFFR1) receptor (Homo sapiens, UniProt Q9GZQ6) data and give IC50 for Cl.Nc1ccc(-c2cccc3cccnc23)c(CC2CCC2)n1 .
A) < 100 nM

Q) Check human NPFFR1 (hNPFFR1) receptor (Homo sapiens, UniProt Q9GZQ6) data and give IC50 for CCc1nc(N)ccc1-c1cc(C)cc2cccnc12.Cl .
A) < 100 nM

Q) Check human NPFFR1 (hNPFFR1) receptor (Homo sapiens, UniProt Q9GZQ6) data and give IC50 for Nc1ccc(-c2cccc3cc[nH]c23)c(N)n1 .
A) < 100 nM

Q) Check human NPFFR1 (hNPFFR1) receptor (Homo sapiens, UniProt Q9GZQ6) data and give IC50 for CCc1nc(N)ccc1-c1c(F)cc(F)c2ccc(=O)[nH]c12.Cl .
A) 100 to 1000 nM

Q) Check human NPFFR1 (hNPFFR1) receptor (Homo sapiens, UniProt Q9GZQ6) data and give IC50 for CCc1nc(N)ccc1-c1cccc2ccc(-c3cncnc3)nc12 .
A) < 100 nM

###

Listing of entries alongside the reported IC50.
assayed.system: human NPFFR1 (hNPFFR1) receptor (Homo sapiens, UniProt Q9GZQ6)
protocol.description: Human NPFFR1 evaluation using BRET biosensors (antagonist IC50)
test.settings: hNPFFR1 transiently over-expressed in HEK-293 T cells; BRET signal; stimulation by EC80 RFRP-3

CCc1nc(N)ccc1-c1ccccc1-c1ccc(N2CCOCC2)nc1.Cl [Example 84] | < 100 nM
CCc1nc(N)ccc1-c1cccc2ccc(C(=O)N3CCCC3)nc12.Cl [Example 141] | < 100 nM
CCc1nc(N)ccc1-c1cccc2ccc(C)nc12.Cl [Example 90] | < 100 nM
CCc1nc(N)ccc1-c1ccc(C(F)(F)F)c2cccnc12.Cl [Example 75] | > 1000 nM
Cl.Nc1ccc(-c2c(F)c(F)cc3ccc(O)nc23)c(N)n1 [Example 64] | < 100 nM
CCc1nc(N)ccc1-c1cccc2c1NCCC2.Cl [Example 106] | 100 to 1000 nM

Q) Check human NPFFR1 (hNPFFR1) receptor (Homo sapiens, UniProt Q9GZQ6) data and give IC50 for CCc1nc(N)ccc1-c1cccc2ccc(C(=O)NCc3ccccc3)nc12.Cl [Example 174] .
A) < 100 nM

Q) Check human NPFFR1 (hNPFFR1) receptor (Homo sapiens, UniProt Q9GZQ6) data and give IC50 for CCc1nc(N)ccc1-c1cccc2ccc(-c3ccncc3)nc12.Cl [Example 122] .
A) < 100 nM

Q) Check human NPFFR1 (hNPFFR1) receptor (Homo sapiens, UniProt Q9GZQ6) data and give IC50 for Cl.Nc1ccc(-c2cc(F)cc3cccnc23)c(N)n1 [Example 52] .
A) < 100 nM

###

Listing of entries alongside the reported pIC50.
assayed.system: human NPFFR1 (hNPFFR1) receptor (Homo sapiens, UniProt Q9GZQ6)
Construct: expressed in transfected cells; host or cells: HEK-293 T cells, transient co-transfection with polyethylenimine
protocol.description: Human NPFFR1 evaluation using BRET biosensors (antagonist IC50)
Format: cell-based
test.settings: hNPFFR1 transiently over-expressed in HEK-293 T cells; BRET signal; stimulation by EC80 RFRP-3
Description: Compounds of the present invention were tested successively for their agonist and antagonist activities on human NPFFR1 (hNPFFR1) receptor transiently over-expressed in HEK-293 T cells. […] Receptor activity is detected by changes in BRET signal. […] Compounds and luciferase substrate are added to the cells using an automated device (Freedom Evo®, Tecan) and BRET readings are collected on EnVision (PerkinElmer) with specific filters (410 nm BW 80 nm, 515 nm BW 30 nm). […]
pIC50: −log10 of the molar value.

Below: 5 compounds and their reported pIC50.
CCc1nc(N)ccc1-c1ccccc1-c1ccc(O)nc1.Cl | 6.00 to 7.00
CC(C)c1nc(N)ccc1-c1cccc2cccnc12.Cl | > 7.00
Cl.Nc1ccc(-c2cccc3ccc(=O)[nH]c23)c(N)n1 | > 7.00
CCc1nc(N)ccc1-c1ccccc1-c1cccnc1.Cl | 6.00 to 7.00
CCc1nc(N)ccc1-c1cccc2c1NC(=O)CC2.Cl | 6.00 to 7.00

Q) Read the entry CCc1nc(N)ccc1-c1ccc(F)cc1-c1ccc(N2CCOCC2)nc1.Cl and write its reported pIC50.
A) 6.00 to 7.00

Q) Read the entry CCc1nc(N)ccc1-c1cccc2ccc(=O)[nH]c12.Cl and write its reported pIC50.
A) 6.00 to 7.00

Q) Read the entry CCc1nc(N)ccc1-c1c(C(N)=O)ccc2cccnc12.Cl and write its reported pIC50.
A) < 6.00

Q) Read the entry CCc1nc(N)ccc1-c1cccc2ccc(C3(C)CC3)nc12.Cl and write its reported pIC50.
A) 6.00 to 7.00

Q) Read the entry Cl.Nc1ccc(-c2cccc3c2OCCO3)c(N)n1 and write its reported pIC50.
A) 6.00 to 7.00
